Test system: NCI-H522
Test: NCI tumour cell line growth inhibition, 48 h
Activity calls are given as the source filed them. Cut-off read from the data, not from the text of the source: active = GI50 up to about 1.1 µM and inactive = higher.
API: response.call in T for active, F for inactive

Answered cases to consult:
Query: recorded result category for CC(C)(C)C(=O)C(Cc1ccccc1)C(=O)C(C)(C)C in this test
F

Which outcome was assigned to CN1C(=O)[C@H](c2c[nH]c3ccccc23)[C@H](c2c[nH]c3ccccc23)C1=O in this test?
F

Look up the recorded call for O=C(/C=C/c1ccc(Cl)c(Cl)c1)c1ccc2ccccc2c1 in this test.
F

Recorded call for CN1C/C(=C\c2cccs2)C2=NN(c3ccccc3)C(c3cccs3)C2C1 (centres undefined) ?
F

New cases:
Which outcome did this test record for the compound CN(C)c1ccc(C2CC(=O)C(C#N)=C(c3ccccc3)NN2C)cc1 (centres undefined) ?
F

Dear all, I need the recorded test outcome for FC(F)(F)c1cc(N(C2c3ccccc3C=Cc3ccccc32)P(Cl)Cl)cc(C(F)(F)F)c1 , thank you.
F

Which outcome did this test record for the compound Cc1ccc(C2CC(c3cccc([N+](=O)[O-])c3)=Nc3ccccc3S2)cc1 (centres undefined) ?
F

* * *

System: 786-0
Test: NCI tumour cell line growth inhibition, 48 h
Activity calls are given as the source filed them. No stated cut-off is given here; in the data, active = GI50 up to about 1.1 µM and inactive = higher.
Your reply should match one of these outcome classes. t for active, f for inactive

The following molecules have reported results that may help.
Look up the recorded call for C=C1C(=O)OC2C1C(OC(=O)/C(=C/C)COC(C)=O)CC1(CO1)C1C(OC(=O)/C(=C/C)CO)C=C(C)C21 (configuration not stated) in this test.
f

I'd appreciate the recorded outcome for NCC1OC(OC2C(N)CC(N)C(O)C2OC2OC(CO)C(O)C2O)C(N)C(O)C1O (configuration not stated) from this test.
f

Test call for this molecule, please: CC(C)N1CC2CC(CN(C(=O)c3ccc(Cl)cc3)C2)C1
f

Others:
Tell me the recorded outcome of this test for CCOC(=O)NC/C=C/COC1CCCCO1 (configuration not stated) .
f

Hi, do you know how CC1N(O)C(c2ccccc2)C(c2ccccc2)=[N+]1[O-] (configuration not stated) came out in this test?
f

* * *

Test system: MDA-MB-435
Test: NCI tumour cell line growth inhibition, 48 h
Activity calls are given as the source filed them. Cut-off read from the data, not from the text of the source: active = GI50 up to about 1.1 µM and inactive = higher.
reported-endpoint: GI50

Consider the following illustrative entries.
Return the recorded GI50 value; entry: COC(=O)C1(C#N)C(C)(C)N=C(c2ccccc2)C12CCCCC2 (stereo not drawn)
> 100 µM (inactive)

Look up and state reported GI50 for O=C1CSC(/C=C/c2ccccc2)N1c1nc2cc3sc(N4C(=O)CSC4/C=C/c4ccccc4)nc3cc2s1 (stereo not drawn)
> 65.6 µM (inactive)

Here is the next item to consider.
Give GI50 for the following compound: Cn1cnc([N+](=O)[O-])c1[Se]c1nc(N)nc2c1ncn2C1OC(CO)C(O)C1O (stereo not drawn)
> 100 µM (inactive)

* * *

Overview of recorded GI50 for various molecules
Tested on: CAKI-1
Assay: NCI tumour cell line growth inhibition, 48 h
Active and inactive are the calls of the source. Cut-off read from the data, not from the text of the source: active = GI50 up to about 1.1 µM and inactive = higher.

Check out these entries, answers already filled in.
Give me measured GI50, please, for this molecule: CC(CO)C1=CC(C#CCOCc2ccccc2)N(C(=O)Oc2ccccc2)c2ccccc21 (stereo not given)
18.7 µM (inactive)

Please supply the value of reported GI50 for the item COc1ccc(SCc2cc(OC)c(OC)c(OC)c2)cc1OC
44.5 µM (inactive)

Read the entry S=C1CCSc2c(ccc3ccccc23)N1 and write its reported GI50.
> 100 µM (inactive)

Write down GI50 measured for item O=c1nc(NC2CCCCO2)ccn1CCO (stereo not given)
> 100 µM (inactive)

Hello, please tell me recorded GI50 for this one: CC(C)/C(Cl)=N\OC(=O)Nc1ccc(S(N)(=O)=O)cc1
17.3 µM (inactive)

Output GI50 of CN(CC(=O)O)c1ncc2c(n1)CCCC2
> 100 µM (inactive)

Others:
Specify measured GI50 for O=S(=O)(c1ccc(-c2nnc(-c3ccc(F)cc3)o2)cc1)c1ccc(-c2nnc(-c3ccc(F)cc3)o2)cc1 .
> 100 µM (inactive)

Read off the recorded GI50 for c1ccc(COC2NCCN2Cc2ccccc2)cc1 (stereo not given)
> 100 µM (inactive)

Give me measured GI50, please, for this molecule: Cc1ccc2c(=O)c(-c3nnc(NC4CCCCC4)s3)c[nH]c2n1
> 100 µM (inactive)

Supply measured GI50 of CC(=O)c1csc2c1C(=O)c1scc(C(C)=O)c1C2=O in your reply.
2.22 µM (inactive)

* * *

System: KM12
Assay: NCI tumour cell line growth inhibition, 48 h
Active and inactive are the calls of the source. No stated cut-off is given here; in the data, active = GI50 up to about 1.1 µM and inactive = higher.
Form field: GI50 (one value per entry).

Tell me measured GI50 for CCOP(=O)(OCC)/C(=C/NC(=S)c1ccncc1)C(=O)OC please.
> 100 µM (inactive)

Please report the measured GI50 for C[N+](C)(C)CCc1ccccc1
> 100 µM (inactive)

Let us move to another entry and its GI50.
Given CC1CC(C[N+](=O)[O-])CC2(C1)OCCO2 (stereo not drawn) , respond with its GI50.
> 100 µM (inactive)

* * *

Property: GI50; scope: individual molecules
System: HCT-15

Below, 2 molecules whose answers are already recorded.
Using the record for CCOC(=O)C(C(O)c1ccc([N+](=O)[O-])cc1)P(=O)(OCC)OCC (stereo not drawn) , state its measured GI50.
> 100 µM

Read the entry CCOc1ccc2c(C)cc(=O)oc2c1 and write its reported GI50.
> 100 µM

Let us examine a further case.
For O=C=NCCCCCCN1C(=O)N2C(c3ccccc3)N(CCCCCCN=C=O)C(=O)N2C1c1ccccc1 (stereo not drawn) , write its GI50.
> 100 µM

* * *

Test system: TK-10
Assay: NCI tumour cell line growth inhibition, 48 h
The source made the active and inactive calls. No stated cut-off is given here; in the data, active = GI50 up to about 1.1 µM and inactive = higher.
Measured GI50 values are reported for all entries that follow.

Known GI50 results, listed for orientation:
Check TK-10 data and give GI50 for OC1CCOc2ccccc21 (centres undefined) .
> 100 µM (inactive)

Give GI50 for CCOC(=O)C1=C(N2CCCC2)NC(=O)CC1=O tested on TK-10.
> 100 µM (inactive)

Give GI50; test system TK-10; compound COc1ccc(NC(=O)C(=O)c2c(O)c3ccc(O)cc3oc2=O)c([N+](=O)[O-])c1
> 100 µM (inactive)

Find GI50 for CCCCCCCCC/C=C1\CCC(CN2CCOCC2)C1=O (centres undefined) on TK-10 and write it down.
2.33 µM (inactive)

Look up TK-10 data: GI50 of Cc1c(C(=O)O)sc2nc[nH]c(=O)c12 , then report it.
> 100 µM (inactive)

Continuing:
Tell me its GI50 on TK-10: COc1ccc(C(=O)C(c2ccc(OCc3ccccc3)cc2)c2ccc(OCc3ccccc3)cc2)cc1
> 100 µM (inactive)

Look up TK-10 data: GI50 of C(=C\c1c2oc(-c3ccccc3)cc(-c3ccccc3)c-2c2ccccc12)/C=C1\c2ccccc2-c2c(-c3ccccc3)cc(-c3ccccc3)[o+]c21.[O-][Cl+3]([O-])([O-])[O-] , then report it.
> 100 µM (inactive)

For TK-10, give the measured GI50 of the entry Nc1ccccc1C(=O)/C=C/c1c(O)ccc2ccccc12
> 100 µM (inactive)

State GI50 on TK-10. Entry: COc1ccccc1N1C(=O)/C(=C\c2cc(OC)c(OC)c(OC)c2)SC1c1ccccc1 (centres undefined)
53.3 µM (inactive)

Report the value of GI50 obtained on TK-10 for C=C1C(=O)OC2C1C(OC(=O)/C(=C/C)COC(C)=O)CC1(CO1)C1C(OC(=O)/C(=C/C)CO)C=C(C)C21 (centres undefined) .
2.3 µM (inactive)

Fetch value of GI50 on TK-10 for O=C(c1ccco1)N1CCCN(C(=O)c2ccco2)C1=S .
> 100 µM (inactive)

Quote GI50 with test system TK-10 for CC1=CC=C2c3ccccc3C=CN2C(=O)C1
20.1 µM (inactive)

Jot down GI50 (TK-10) of O=[N+]([O-])c1ccc(Cl)c(C2CC(c3cccc4ccccc34)=Nc3ccccc3S2)c1 (centres undefined) .
41 µM (inactive)

Give the observed GI50 of CCn1c(C)nn2c(=O)c3ccccc3nc2c1=O for TK-10.
> 100 µM (inactive)

Tell me its GI50 on TK-10: Cc1ccc2c(=O)c(-c3nnc(NC4CCCCC4)s3)c[nH]c2n1
> 100 µM (inactive)

Provide the reported GI50 (system: TK-10) for C=C(C)[C@]12CC(C)C34OC(/C=C\C=C\CCCCCCCCC)(O[C@@H]1[C@@H]3[C@@H]1O[C@]1(CO)[C@@H](O)[C@]1(O)C(=O)C(C)=C[C@@H]41)O2 (some centres undefined)
0.000288 µM (active)

Tell me GI50 of Cc1cc(=O)oc2c1cc1ccc3cccc4ccc2c1c34 when tested on TK-10.
> 100 µM (inactive)

With TK-10 as the test system, provide measured GI50 for this compound: O=C(C(=O)n1ncc(Cl)c(Cl)c1=O)n1ncc(Cl)c(Cl)c1=O
27.4 µM (inactive)

Write down measured GI50 (TK-10) for this compound. COc1cc2cc(C(=O)N3CC(CCl)c4ccc(NO)cc43)[nH]c2c(OC)c1OC (centres undefined)
0.313 µM (active)

Identify measured GI50 obtained with TK-10 for CC(=O)c1csc2c1C(=O)c1scc(C(C)=O)c1C2=O .
2.54 µM (inactive)

Enter recorded GI50 with TK-10 for O=c1nc(NC2CCCCO2)ccn1CCO (centres undefined) here.
> 100 µM (inactive)

Enter recorded GI50 with TK-10 for CC(=O)N1N(c2ccc([N+](=O)[O-])cc2)C(=O)C1(C)C here.
17.1 µM (inactive)

GET GI50 where system = TK-10 and item = CC1CC(C[N+](=O)[O-])CC2(C1)OCCO2 (centres undefined)
> 100 µM (inactive)

# return GI50 of O=C(Nc1c(Cl)cc([N+](=O)[O-])cc1Cl)C(=O)C(C(=O)c1ccncc1)C1OC(=O)c2ccccc21 (centres undefined) (system: TK-10)
> 100 µM (inactive)
